- TARGET_OR_SYSTEM: T1, human H7CR (B7-H7 counter-receptor) (human, UniProt Q96BF3 23-282)
- T1 construct: Used for H7CR on CHO.hH7CR transfectants, human T cells and tonsil tissue; also called B7-H7CR; CD28H
- T1 sequence: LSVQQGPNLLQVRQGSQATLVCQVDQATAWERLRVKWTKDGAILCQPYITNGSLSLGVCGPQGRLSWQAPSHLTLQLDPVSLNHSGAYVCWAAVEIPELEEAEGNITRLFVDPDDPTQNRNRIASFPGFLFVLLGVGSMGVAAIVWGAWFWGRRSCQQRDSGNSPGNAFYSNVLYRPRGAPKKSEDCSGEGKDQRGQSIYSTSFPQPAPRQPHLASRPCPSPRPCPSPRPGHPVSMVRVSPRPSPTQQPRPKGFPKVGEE
- ASSAY_DETAILS: binding to human H7CR as endogenously expressed on the surface of a cell
ASSAY_READOUT: binding result

Value lookup for binding result; key = 4.5 humanized variant 20 (HC2-1 / LC1-2) (antibody, V domains shown, Variable domains only; detected with anti-hIg secondary; also called VH2A / VL1B) VH: QITLKESGPTLVKPTQTLTLTCTFSGFSITTGGYYVGWIRQPPGKALEWLALIYTSGRTRYSPSLKSRLTITKDTSKNQVVLTMTNMDPVDTATYYCADMADKGGWFAYWGQGTLVTVSS VL: DIVMTQSPDSLAVSLGERATINCKSSQSLFSSNTKRNYLNWYQQKPGQPPKLLIYHASTRLSGVPDRFSGSGSGTDFTLTISSLQAEDVADYFCQQHYETPLTFGDGTRLEIK
binds

Value lookup for binding result; key = 4.5 humanized variant 21 (HC2-1 / LC1-3) (antibody, V domains shown, Variable domains only; detected with anti-hIg secondary; also called VH2A / VL1C) VH: QITLKESGPTLVKPTQTLTLTCTFSGFSITTGGYYVGWIRQPPGKALEWLALIYTSGRTRYSPSLKSRLTITKDTSKNQVVLTMTNMDPVDTATYYCADMADKGGWFAYWGQGTLVTVSS VL: DIVMTQSPDSLAVSLGERATINCLSSQSLFSSNTKRNYLNWYQQKPGQSPKLLIYHASTRLSGVPDRFSGSGSGTDFTLTISSLQAEDVADYFCQQHYETPLTFGDGTRLEIK
binds

Value lookup for binding result; key = 4.5 humanized variant 31 (HC2-3 / LC1-1) (antibody, V domains shown, Variable domains only; detected with anti-hIg secondary; also called VH2C / VL1A) VH: QIQLKESGPTLVKPTQTLTLTCTVSGFSITTGGYYWNWIRQPPGKKLEWMALIYTSGRTSYNPSLKSRLTITKDTSKNQVVLTMTNMDPVDTATYYCADMADKGGWFAYWGQGTLVTVSS VL: DIVMTQSPDSLAVSLGERATINCKSSQSLFSSNTKRNYLAWYQQKPGQPPKLLIYHASTRESGVPDRFSGSGSGTDFTLTISSLQAEDVAVYYCQQHYETPLTFGQGTRLEIK
binds
